Target: ULK1 (Homo sapiens)
Sequence (O75385 1-1050): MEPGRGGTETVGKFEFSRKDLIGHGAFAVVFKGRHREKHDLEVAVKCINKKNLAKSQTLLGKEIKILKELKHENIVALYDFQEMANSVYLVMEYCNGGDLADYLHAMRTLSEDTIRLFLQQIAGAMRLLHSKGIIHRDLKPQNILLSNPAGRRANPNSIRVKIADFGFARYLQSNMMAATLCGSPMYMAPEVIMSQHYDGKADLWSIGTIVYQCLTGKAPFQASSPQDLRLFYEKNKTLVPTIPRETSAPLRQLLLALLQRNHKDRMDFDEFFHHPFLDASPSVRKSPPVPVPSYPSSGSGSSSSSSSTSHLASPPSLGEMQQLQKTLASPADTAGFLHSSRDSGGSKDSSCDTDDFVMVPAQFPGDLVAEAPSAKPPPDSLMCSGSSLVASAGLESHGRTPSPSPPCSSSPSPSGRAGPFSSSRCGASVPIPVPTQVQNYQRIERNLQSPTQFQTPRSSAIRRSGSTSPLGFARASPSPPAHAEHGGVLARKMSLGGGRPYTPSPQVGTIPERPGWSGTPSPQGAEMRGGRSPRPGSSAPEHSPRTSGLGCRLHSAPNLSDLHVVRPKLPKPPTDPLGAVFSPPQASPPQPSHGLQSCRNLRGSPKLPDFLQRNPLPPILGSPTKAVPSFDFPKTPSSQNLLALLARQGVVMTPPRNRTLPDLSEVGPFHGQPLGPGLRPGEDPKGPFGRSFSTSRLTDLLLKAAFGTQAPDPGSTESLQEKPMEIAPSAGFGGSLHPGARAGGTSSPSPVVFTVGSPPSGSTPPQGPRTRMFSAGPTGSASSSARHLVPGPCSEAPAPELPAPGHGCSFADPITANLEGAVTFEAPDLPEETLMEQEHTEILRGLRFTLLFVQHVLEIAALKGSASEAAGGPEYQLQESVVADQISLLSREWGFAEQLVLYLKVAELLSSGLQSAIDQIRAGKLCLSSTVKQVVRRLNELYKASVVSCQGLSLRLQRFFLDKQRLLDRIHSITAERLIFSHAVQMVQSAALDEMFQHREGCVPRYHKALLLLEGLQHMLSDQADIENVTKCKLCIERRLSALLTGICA
parameter: IC50

[
  {
    "compound": "COc1cc(Nc2nc(Oc3cccc4cc[nH]c34)ncc2Br)cc(OC)c1OC [Compound 329b]",
    "target-under-test": "ULK1 (Homo sapiens)",
    "IC50": "> 2000 nM"
  },
  {
    "compound": "O=C1CCc2cc(Nc3ncc(C(F)(F)F)c(Nc4ccc5[nH]ncc5c4)n3)ccc2N1",
    "target-under-test": "ULK1 (Homo sapiens)",
    "IC50": "< 200 nM"
  },
  {
    "compound": "O=C1CCc2cc(Nc3ncc(C(F)(F)F)c(N(CCO)CCO)n3)ccc2N1 [Compound 212a]",
    "target-under-test": "ULK1 (Homo sapiens)",
    "IC50": "> 2000 nM"
  },
  {
    "compound": "COc1ccc(Nc2ncc(C(F)(F)F)c(O)n2)cc1 [Compound 105b]",
    "target-under-test": "ULK1 (Homo sapiens)",
    "IC50": "> 2000 nM"
  },
  {
    "compound": "O=C1CCc2cc(Nc3ncc(C(F)(F)F)c(Nc4ccccc4)n3)ccc2N1",
    "target-under-test": "ULK1 (Homo sapiens)",
    "IC50": "< 200 nM"
  },
  {
    "compound": "COc1cc(N2CCOCC2)ccc1Nc1ncc(Br)c(Nc2ccccc2S(=O)(=O)N(C)C)n1",
    "target-under-test": "ULK1 (Homo sapiens)",
    "IC50": "< 200 nM"
  },
  {
    "compound": "COc1ccc(C)c(Nc2ncc(Cl)c(NCc3cccc(S(C)(=O)=O)c3)n2)c1",
    "target-under-test": "ULK1 (Homo sapiens)",
    "IC50": "> 2000 nM"
  },
  {
    "compound": "Nc1ccc(Nc2ncc(C(F)(F)F)c(NC3CC3)n2)cc1 [Compound 304a]",
    "target-under-test": "ULK1 (Homo sapiens)",
    "IC50": "< 200 nM"
  },
  {
    "compound": "FC(F)(F)c1cnc(Nc2cnc3ccccc3c2)nc1NC1CC1",
    "target-under-test": "ULK1 (Homo sapiens)",
    "IC50": "< 200 nM"
  }
]

get_value(item= FC(F)(F)c1cnc(NCC2CC2)nc1Nc1ccc2c(c1)OCO2 [Compound 167a] , readout=IC50) returns < 200 nM
